Attribution: patent US20240228459A1

# assayed system: PLK1 (Homo sapiens, UniProt P53350)
# Sequence (P53350 whole entry, species assumed): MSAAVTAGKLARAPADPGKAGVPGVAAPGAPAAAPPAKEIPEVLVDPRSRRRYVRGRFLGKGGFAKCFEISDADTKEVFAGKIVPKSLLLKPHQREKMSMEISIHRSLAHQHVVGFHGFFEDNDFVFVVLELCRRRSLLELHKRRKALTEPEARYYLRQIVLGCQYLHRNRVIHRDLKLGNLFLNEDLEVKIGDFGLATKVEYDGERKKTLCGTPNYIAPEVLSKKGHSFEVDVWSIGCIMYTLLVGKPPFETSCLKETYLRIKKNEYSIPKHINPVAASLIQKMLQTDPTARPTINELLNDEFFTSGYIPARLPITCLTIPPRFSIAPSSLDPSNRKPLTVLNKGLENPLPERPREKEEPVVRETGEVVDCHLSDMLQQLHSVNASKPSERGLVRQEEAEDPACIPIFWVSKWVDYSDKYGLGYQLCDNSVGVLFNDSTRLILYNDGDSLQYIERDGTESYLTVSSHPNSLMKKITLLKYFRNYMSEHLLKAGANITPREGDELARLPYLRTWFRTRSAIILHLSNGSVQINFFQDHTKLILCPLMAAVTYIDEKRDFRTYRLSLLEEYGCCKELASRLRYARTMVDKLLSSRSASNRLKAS
# experiment notes: PLK1 activity (known assay)
# Assay type: biochemical
pIC50: −log10 of the molar value.
Listed below: pIC50 values for each entry.

Below: 3 molecules and their reported pIC50.
molecule: CCC1(O)CCc2ccc(Nc3nc(Nc4ccc5c(c4)CCN(C)C5(C)C)ncc3C#N)nc21 (stereo not shown) [Example 26]
assayed system: PLK1 (Homo sapiens, UniProt P53350)
pIC50: < 6.00
//
molecule: CCC1(O)CCc2ccc(Nc3nc(Nc4ccc5c(c4)CCN(C)C5(C)C)ncc3C#N)nc21 (single isomer, unassigned) [Example 27]
assayed system: PLK1 (Homo sapiens, UniProt P53350)
pIC50: < 6.00
//
molecule: Cc1cc(Nc2ncc(C#N)c(Nc3cccc(N4CCCC4=O)n3)n2)cc2c1CCN(C)C2
assayed system: PLK1 (Homo sapiens, UniProt P53350)
pIC50: 6.60 to 7.00

Shifting focus to the molecule that follows.
Query block: Requested field: pIC50. Item: CCC1(O)CCc2ccc(Nc3nc(Nc4ccc(N5CC6CCC5CN6C)cc4)ncc3C#N)nc21 (stereo not shown)
Result block: ≥ 7.00
